# Tested Target: UniProt Q9NR96
# Sequence (Q9NR96 26-1032): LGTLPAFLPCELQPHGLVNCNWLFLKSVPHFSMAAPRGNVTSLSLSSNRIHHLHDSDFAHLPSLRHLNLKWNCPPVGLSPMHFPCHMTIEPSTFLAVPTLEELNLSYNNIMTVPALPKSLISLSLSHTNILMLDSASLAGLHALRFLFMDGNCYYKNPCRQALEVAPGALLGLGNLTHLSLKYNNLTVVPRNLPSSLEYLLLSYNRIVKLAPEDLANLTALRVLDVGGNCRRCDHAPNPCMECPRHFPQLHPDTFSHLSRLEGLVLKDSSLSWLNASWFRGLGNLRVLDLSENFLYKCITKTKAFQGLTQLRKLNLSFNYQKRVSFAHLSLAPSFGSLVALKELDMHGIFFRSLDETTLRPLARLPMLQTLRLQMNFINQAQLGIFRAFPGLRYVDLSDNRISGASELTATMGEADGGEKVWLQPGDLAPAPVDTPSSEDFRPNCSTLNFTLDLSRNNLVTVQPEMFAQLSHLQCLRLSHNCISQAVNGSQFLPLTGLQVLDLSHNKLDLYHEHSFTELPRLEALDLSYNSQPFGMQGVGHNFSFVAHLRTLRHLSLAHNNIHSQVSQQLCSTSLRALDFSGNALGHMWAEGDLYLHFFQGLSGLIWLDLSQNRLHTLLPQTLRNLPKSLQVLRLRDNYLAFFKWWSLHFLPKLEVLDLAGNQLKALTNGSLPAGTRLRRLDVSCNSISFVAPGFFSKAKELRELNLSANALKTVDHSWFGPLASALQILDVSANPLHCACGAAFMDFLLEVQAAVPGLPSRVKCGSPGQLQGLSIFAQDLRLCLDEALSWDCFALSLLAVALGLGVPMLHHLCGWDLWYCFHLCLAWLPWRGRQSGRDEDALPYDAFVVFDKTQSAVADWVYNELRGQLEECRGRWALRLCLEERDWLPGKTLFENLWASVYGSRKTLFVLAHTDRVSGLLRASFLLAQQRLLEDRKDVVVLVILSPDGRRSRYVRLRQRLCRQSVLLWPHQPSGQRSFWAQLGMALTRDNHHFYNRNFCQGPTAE
# Test Method Notes: HEK293-Blue-hTLR-9 cells assay (SEAP reporter, ODN2006 stimulation)
# Type: cell-based
# Assay Context: HEK293-Blue-hTLR9 cells, ODN2006, 20 hrs; 0.032 is the lowest tested concentration; read-out: HEK/hTLR9 IC50
Readout: IC50 (nM)

// known answers, use as guide
1) C[C@@H]1CN(c2ccc(C#N)c3ncccc23)C[C@H](CN2Cc3ccc(N4CC5CCC(C4)N5)cc3C2)O1 [Example 42] ... 97
2) C[C@@H]1CN(c2ccc(C#N)c3nccnc23)C[C@H](CNCc2ccc(N3CCNCC3)cc2)O1 [Example 84] ... 50
3) C[C@@H]1CN(c2ccc(Cl)c3nccnc23)C[C@H](CN2Cc3ccc(N4CCNCC4)cc3C2)O1 [Example 33] ... 174
4) C[C@@H]1CN(c2ccc3c(c2)CN(C[C@H]2CN(c4ccc(C#N)c5ncccc45)C[C@@H](C)O2)C3)C[C@H](C)N1 [Example 71] ... 73
5) C[C@@H]1CN(c2ccc(C#N)c3nccnc23)C[C@H](CN2Cc3ccc(N4C5CCC4CNC5)cc3C2)O1 [Example 41] ... 227

[I] C[C@@H]1CN(c2ccc(C#N)c3ncsc23)C[C@H](CN2Cc3ccc(N4CCNCC4)cc3C2)O1 [Example 23]
[II] C[C@@H]1CN(c2ccc(Cl)c3nccnc23)C[C@H](CN2CCc3cc(N4CCNCC4)ccc3C2)O1 [Example 34]
[III] C[C@@H]1CN(c2ccc(C#N)n3nccc23)C[C@H](CN2Cc3cc(N4CCNCC4)cnc3C2)O1 [Example 18]
[IV] C[C@@H]1CN(c2ccc(C#N)c3ncccc23)C[C@H](CN2Cc3ccc(N4CCNCC4C(F)F)cc3C2)O1 (stereo partly shown) [Example 76]
Order the records so the highest IC50 appears first and the lowest last. Output spec: labels arranged per the requested ranking. IV, II, I, III
(IV: 190 nM, II: 125 nM, I: 75 nM, III: 48 nM)
